- system tested: SHP2 (Homo sapiens)
- Construct: endogenous in cells; host or cells: MV411 (MV4-11) leukemia cells
- experiment description: SHP2 degradation in MV411 cells (Western blot, SHP-2 antibody)
- Type: cell-based
- condition parameters: MV 411 cells, 24 hours with compound, SHP2 protein level by Western blot
property name: DC50 (nM)

1) CCOc1cc(O)c(C(=O)/C=C/c2ccc(NCCOCCOCCNc3cccc4c3C(=O)N(C3CCC(=O)NC3=O)C4=O)cc2Cl)cc1CN1CCC[C@H]1CO (some centres unmarked)
125
2) CCOc1cc(O)c(C(=O)/C=C/c2ccc(NCCOCCOCCNc3cccc4c3C(=O)N(C3CCC(=O)NC3=O)C4=O)cc2Cl)cc1CN1CCC[C@H]1COC (some centres unmarked)
215
3) CCOc1cc(O)c(C(=O)/C=C/c2ccc(N3CCN(CCOCCOCCOc4cccc5c4C(=O)N(C4CCC(=O)NC4=O)C5=O)CC3)cc2Cl)cc1CN1CCCC(n2c(=O)[nH]c3ccccc32)C1 (centres unmarked)
16
4) CCOc1cc(O)c(C(=O)/C=C/c2ccc(NCCOCCOCCOCCOc3cccc4c3C(=O)N(C3CCC(=O)NC3=O)C4=O)cc2Cl)cc1CN1CCC[C@H]1C(N)=O (some centres unmarked)
142
5) CCOc1cc(O)c(C(=O)/C=C/c2ccc(N3CCN(CCOCCOCCOc4cccc5c4C(=O)N(C4CCC(=O)N(COC(=O)C(C)(C)C)C4=O)C5=O)CC3)cc2Cl)cc1CN1CCCC(n2c(=O)[nH]c3ccccc32)C1 (centres unmarked)
13
6) CCOc1cc(O)c(C(=O)/C=C/c2ccc(N3CCN(CCOCCOCCOCCNc4cccc5c4C(=O)N(C4CCC(=O)NC4=O)C5=O)CC3)cc2Cl)cc1CN1CCCC(n2c(=O)[nH]c3ccccc32)C1 (centres unmarked)
102
7) CCOc1cc(O)c(C/C=C/c2ccc(N3CCN(C(=O)CCCCCC(=O)Nc4cccc5c4C(=O)N(C4CCC(=O)NC4=O)C5=O)CC3)cc2Cl)cc1CN1CCCC(n2c(=O)[nH]c3ccccc32)C1 (centres unmarked)
120
8) CCOc1cc(O)c(C(=O)/C=C/c2ccc(NCCOCCOCCNc3cccc4c3C(=O)N(C3CCC(=O)NC3=O)C4=O)cc2Cl)cc1CN1CCNCC1 (centres unmarked)
336
9) CCOc1cc(O)c(C(=O)/C=C/c2ccc(N3CCN(CCOCCOCCOc4cccc5c4C(=O)N(C4CCC(=O)NC4=O)C5=O)CC3)cc2Cl)cc1CN1CCC[C@@H]1CO (some centres unmarked)
10
10) CCOc1cc(O)c(C(=O)/C=C/c2ccc(NCCOCCOCCNc3cccc4c3C(=O)N(C3CCC(=O)NC3=O)C4=O)cc2Cl)cc1CN1CCN(C)CC1 (centres unmarked)
321
11) CCOc1cc(O)c(C(=O)/C=C/c2ccc(NCCOCCOCCCOCCNc3cccc4c3C(=O)N(C3CCC(=O)NC3=O)C4=O)cc2Cl)cc1CN1CCC=C(n2c(=O)[nH]c3ccccc32)C1 (centres unmarked)
97

* * *

Below, each entry is listed alongside its reported DC50.
- system tested: SHP2 (Homo sapiens, UniProt Q06124)
- Construct: endogenous in cells; host or cells: MV411 (MV4-11) leukemia cells
- Sequence (Q06124 1-593): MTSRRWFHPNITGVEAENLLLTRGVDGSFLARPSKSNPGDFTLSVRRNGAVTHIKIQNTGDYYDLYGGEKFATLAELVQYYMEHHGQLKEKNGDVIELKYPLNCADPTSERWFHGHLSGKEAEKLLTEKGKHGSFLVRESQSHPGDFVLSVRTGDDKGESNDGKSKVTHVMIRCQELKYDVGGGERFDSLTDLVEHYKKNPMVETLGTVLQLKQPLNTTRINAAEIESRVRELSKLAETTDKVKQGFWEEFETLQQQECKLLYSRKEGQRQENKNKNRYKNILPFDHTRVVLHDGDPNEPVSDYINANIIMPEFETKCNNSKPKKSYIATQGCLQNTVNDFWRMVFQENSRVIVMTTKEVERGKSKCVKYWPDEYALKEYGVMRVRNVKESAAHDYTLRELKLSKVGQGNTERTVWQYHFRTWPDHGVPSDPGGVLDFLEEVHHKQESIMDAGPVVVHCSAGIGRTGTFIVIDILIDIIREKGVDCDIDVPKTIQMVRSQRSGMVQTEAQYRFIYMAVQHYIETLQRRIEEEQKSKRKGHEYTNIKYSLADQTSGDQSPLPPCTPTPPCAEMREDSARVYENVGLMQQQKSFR
- experiment description: SHP2 degradation in MV411 cells (Western blot, SHP-2 antibody)
- Format: cell-based
- condition parameters: MV 411 cells, 24 hours with compound, SHP2 protein level by Western blot
property name: DC50 (nM)

1) CCOc1cc(O)c(C(=O)/C=C/c2ccc(NCCOCCOCCNc3cccc4c3C(=O)N(C3CCC(=O)N(C(C)OC(=O)CC)C3=O)C4=O)cc2Cl)cc1CN1CCN(C)CC1 (stereo not drawn)
356
2) CCOc1cc(O)c(C/C=C/c2ccc(N3CCN(C(=O)CCCCCCC(=O)Nc4cccc5c4C(=O)N(C4CCC(=O)NC4=O)C5=O)CC3)cc2Cl)cc1CN1CCC=C(n2c(=O)[nH]c3ccccc32)C1 (stereo not drawn)
52
3) CCOc1cc(O)c(C(=O)/C=C/c2ccc(N3CCN(CCOCCOCCOc4cccc5c4C(=O)N(C4CCC(=O)NC4=O)C5=O)CC3)cc2Cl)cc1CN1CCC=C(n2c(=O)[nH]c3ccccc32)C1 (stereo not drawn)
81
